B1: AZIN2 peptide 1-16 (Antizyme inhibitor 2), 16-mer library wild type / NSP3 ADRP (ORF1ab Nsp3b ADRP, residues 1023-1192) (parent)
chain 1: MAGYLSESDFVMVEEG
chain 2: not shown

Variants of: B1
APPLIED_CONDITIONS: with NSP3 ADRP (ORF1ab Nsp3b ADRP, residues 1023-1192); bait immobilised on MaxiSorp plates (10 µg), library pre-cleared on GST, 2 h binding at 4 °C, five washes; one round per day, days 1-4; value from days 2 and 3; keep out of graded; scale: average fractional NGS count over selection days 2 and 3
OUTCOME_MEASURE: screen value
Output spec: single numeric token, no unit.

Would you please look over these solved cases?
chain 1 G3S: 2.71e-05
chain 1 A2M: 0
chain 1 E15V: 2.58e-05
chain 1 E15M: 0
chain 1 G3P: 0

For the variant shown here, chain 1 E15F , give the reported screen value.
0

For the variant shown here, chain 1 S6T , give the reported screen value.
0

For the variant shown here, chain 1 A2H , give the reported screen value.
0

For the variant shown here, chain 1 E14T , give the reported screen value.
1.06e-05

For the variant shown here, chain 1 E15W , give the reported screen value.
0

For the variant shown here, chain 1 E7S , give the reported screen value.
0

For the variant shown here, chain 1 F10W , give the reported screen value.
2.93e-05

For the variant shown here, chain 1 E7A , give the reported screen value.
0

For the variant shown here, chain 1 M12W , give the reported screen value.
0

For the variant shown here, chain 1 V13S , give the reported screen value.
3.26e-05

For the variant shown here, chain 1 F10D , give the reported screen value.
0

For the variant shown here, chain 1 F10R , give the reported screen value.
0

For the variant shown here, chain 1 V13G , give the reported screen value.
0

For the variant shown here, chain 1 S6W , give the reported screen value.
0

For the variant shown here, chain 1 E14G , give the reported screen value.
5.95e-05

For the variant shown here, chain 1 M12Q , give the reported screen value.
0

The origin of these recorded values is paper PMC12102759.
